Test system: HEK-293T
assayText: Multiplex assay against HEK293T
Assay type: toxicity, cell-based
experimentalParameters: human, 48 h, 1 µM, compound concentration 1 uM, replicate 1
Kindly state Population Fragmented Nuclei (%) for each of the entries shown.
Give bare numbers, in %.

Record Population Fragmented Nuclei (%) for all entries; do not skip any.
1. N#Cc1c(N)nc(SCc2csc(-c3ccc(Cl)cc3)n2)c(C#N)c1-c1ccc(OCCO)cc1
2. COc1c(C)cc(NC(=O)c2nn(Cc3ccc(F)cc3)c3c2CN(C(=O)c2ccc[nH]2)C[C@]3(C)C(N)=O)cc1C
3. C[C@H](NC(=O)c1c(C(F)F)nn(C)c1Oc1cccc(C(F)(F)F)c1)c1ccc(C(=O)O)cc1
4. O=C(NCCO)c1cccc(-c2cc(Nc3ccc(OC(F)(F)F)cc3)ncn2)c1

Reply:
[10, 11, 13, 12]

* * *

Test system: Fibroblast
assayText: Multiplex assay against human fibroblast
Format: toxicity, cell-based
experimentalParameters: 48 h, 10 µM, compound concentration 10 uM, replicate 2
readout: Population Membrane Permeable-Phenotype (%)
Give bare numbers, in %.

Below, 4 compounds whose answers are already recorded.
# compound, studyTarget, readoutNumber
measured = [
    ("Cl.Clc1ccc2nsnc2c1NC1=NCCN1 [TIZANIDINE HYDROCHLORIDE]", "Fibroblast", 6),
    ("C[C@H]1[C@H]2CC[C@H]3[C@@H]4CC=C5C[C@@H](N(C)C)CC[C@]5(C)[C@H]4CC[C@]23CN1C [CONESSINE]", "Fibroblast", 8),
    ("CN1CCN2c3ncccc3Cc3ccccc3C2C1 (stereo not given) [MIRTAZAPINE]", "Fibroblast", 8),
    ("O=C1COc2nccc(-c3ccccc3F)c2CN1Cc1cc(C(F)(F)F)cc(C(F)(F)F)c1", "Fibroblast", 1),
]

Next, consider the following compound.
Item: CCCC(CCC)C(=O)O [VALPROIC ACID] | Population Membrane Permeable-Phenotype (%): 6

* * *

Test system: U2OS
assayText: Multiplex assay against U2OS
Format: toxicity, cell-based
experimentalParameters: human, 24 h, 1 µM, compound concentration 1 uM, replicate 1
Kindly state Population Tubulin-Different-Phenotype (%) for each of the entries shown.
Give bare numbers, in %.

Below, 2 molecules whose answers are already recorded.
# compoundSmiles, readoutNumber
data = [
    ("CC[C@H]1OC(=O)[C@H](C)[C@@H](O[C@H]2C[C@@](C)(OC)[C@@H](O)[C@H](C)O2)[C@H](C)[C@@H](O[C@@H]2O[C@H](C)C[C@H](N(C)C)[C@H]2O)[C@@]2(C)CC(C)=C(O2)[C@H](C)[C@@H](O)[C@]1(C)O", 17),
    ("O=C(O)c1cc2ccccc2c(Cc2c(O)c(C(=O)O)cc3ccccc23)c1O", 1),
]

Next, consider the following molecule.
Item: Cc1ccc(/C(=C\CN2CCCC2)c2ccccn2)cc1 | Population Tubulin-Different-Phenotype (%): 2

* * *

System: U2OS
assayText: Multiplex assay against U2OS
Type: toxicity, cell-based
experimentalParameters: human, 12 h, 1 µM, compound concentration 1 uM, replicate 2
readout: Population Tubulin-Different-Phenotype (%)
Give bare numbers, in %.

Below, 4 molecules whose answers are already recorded.
# compoundSmiles, valueUnit, readoutNumber
data = [
    ("CC[C@H]1OC(=O)[C@H](C)[C@@H](O[C@H]2C[C@@](C)(OC)[C@@H](O)[C@H](C)O2)[C@H](C)[C@@H](O[C@@H]2O[C@H](C)C[C@H](N(C)C)[C@H]2O)[C@@]2(C)CC(C)=C(O2)[C@H](C)[C@@H](O)[C@]1(C)O", "%", 14),
    ("N#Cc1c(N)nc(SCc2csc(-c3ccc(Cl)cc3)n2)c(C#N)c1-c1ccc(OCCO)cc1", "%", 1),
    ("O=C(NCC(=O)N1CC[C@H](N[C@H]2CC[C@@](O)(c3ccc(-c4ncccn4)cn3)CC2)C1)c1cccc(C(F)(F)F)c1", "%", 8),
    ("Cc1ccc(F)cc1C(=O)Nc1ccc(C(=O)N2Cc3cccn3Cc3ccccc32)c(Cl)c1", "%", 11),
]

Next, consider the following molecule.
Item: N[C@@]1(C(=O)O)CO[C@H]2[C@H](C(=O)O)[C@H]21 | Population Tubulin-Different-Phenotype (%): 3
